Entry source: patent US20230346820A1

experiment: in vitro; conditions: human, CC50 [μM] (Geomeans, n ≥ 2 except where indicated: *n = 1)
Measurement Type: CC50 (µM)
Numbers only, in µM.

{"Compound": "COCC12CN(S(=O)(=O)c3ccc4cc(Cl)ccc4c3)CC(=O)N1CC1(CCN(c3ccncc3)CC1)O2 (stereo not shown) [M-55532]", "Endpoint Value": 18.9}

Turning to the following compound.
Entry under test: CCN1CCC(c2cc(C)c3nc(-c4cc5c(C)nc(C)cn5n4)cc(=O)n3c2)CC1 [SMN-C3] . Its CC50 was 7.16

----------
test system: SARS-CoV-2; experiment: microbe, parasite or virus in culture; settings: Severe acute respiratory syndrome coronavirus 2, HeLa-ACE2, 24 h, read-out: CoV-2 EC50 [μM] (Geomeans, n ≥ 2)
What EC50 was measured for each of the following?
Give bare numbers, in µM.

I would be grateful if you could provide EC50 for each of the following entries.
1. Cc1ccc(C(=O)Nc2cccc(C(F)(F)F)c2)cc1NC(=O)c1cccc2c(N)nccc12
2. Cc1ccc(C(=O)Nc2ccc(CN3CCN(C)CC3)c(C(F)(F)F)c2)cc1C#Cc1cnc2cccnn12
3. NCCc1cn(S(=O)(=O)c2c(Cl)nc3sccn23)c2ccccc12

1: 6.31; 2: 1.61; 3: 1.85
